system_under_test: Glutamate [NMDA] receptor
protocol_summary: Inhibition of [3H]1 binding to dextromethorpin binding site of guinea pig microsomal pellet P3 N-methyl-D-aspartate glutamate receptor
Set-up: species or system Cavia porcellus
// NB: equality with 600 nM counts as Not fulfilled; only IC50 strictly below is Fulfilled

Previously resolved entries follow.
## Task Hello, I'm reviewing records and need to know if IC50 of CCOc1ccc2c(c1)C13CCCCC1C(C2)N(C)CC3 (stereo unspecified) is below 600 nM. Could you check?
## Result Fulfilled

## Task Given CC(C)Oc1ccc2c(c1)C13CCCCC1C(C2)N(C)CC3 (stereo unspecified) , is recorded IC50 strictly lower than 600 nM?
## Result Fulfilled

Continuing:
## Task Hi there! Is IC50 for CN1CCC23CCCCC2C1Cc1ccc(Cl)cc13 (stereo unspecified) below 600 nM, do you know?
## Result Fulfilled

## Task Decide: IC50 of CN1CCC23CCCCC2C1Cc1ccc(N)cc13 (stereo unspecified) strictly below 600 nM?
## Result Not fulfilled

## Task Take the compound CN1CC[C@]23CCCC[C@H]2[C@H]1Cc1ccc(O)cc13 [LEVORPHANOL] and say whether its IC50 is less than 600 nM.
## Result Not fulfilled

====

system_under_test: Glutamate [NMDA] receptor
protocol_summary: Binding affinity against dextromethorpin binding site associated with N-methyl-D-aspartate glutamate receptor from guinea pig mitochondriall pellet P2 determined using [3H]1 as radioligand.
Format: protein-complex assay, Cavia porcellus
property_label: pIC50
Answers are plain numbers, as −log10 of the molar value.

Response field pIC50 (Glutamate [NMDA] receptor) for item CN1CC[C@]23CCCC[C@H]2[C@H]1Cc1ccc(O)cc13 [LEVORPHANOL] : 5.60

====

For each record, write down the corresponding pIC50.
system_under_test: Glutamate NMDA receptor
protocol_summary: Binding affinity against PCP binding site associated with N-methyl-D-aspartate glutamate receptor from rat synaptic plasma membrane(SPM) determined using [3H]TCP as radioligand.
One number for each entry, as −log10 of the molar value.

Take a look at these entries with their results.
pIC50 reading for "CN1CC[C@]23CCCC[C@H]2[C@H]1Cc1ccc(O)cc13" : 5.92

Lab note: CN1CCC23CCCCC2C1Cc1ccc(Cl)cc13 (centres undefined) gave pIC50 of 5.26

Entry "c1ccc(C2(N3CCCCC3)CCCCC2)cc1" — recorded pIC50 = 6.74

Please find the next compound below.
Lab book: pIC50 of CN1CCC23CCCCC2C1Cc1ccc(N)cc13 (centres undefined) noted as 5.11
